Tested on: ALS (acetolactate syntase)
Experimental protocol: ALS enzyme assay (Test 1)
Type: biochemical, barnyardgrass
Measurement context: 1,000 ppm (0.5 mg/0.5 ml)

Compound: CCCC=CCON=Cc1ccccc1Oc1nc(OC)cc(OC)n1 [compound 25]
Unit spec: %
Inhibitory activity (%) Barnyardgrass: 39
//
Compound: CC#CCON=Cc1ccccc1Oc1nc(OC)cc(OC)n1 [compound 10]
Unit spec: %
Inhibitory activity (%) Barnyardgrass: 55
//
Compound: C=C(C)CON=Cc1ccccc1Oc1nc(OC)cc(OC)n1 [compound 5]
Unit spec: %
Inhibitory activity (%) Barnyardgrass: 64
//
Compound: COc1cc(OC)nc(Oc2ccccc2C=NOCC#Cc2ccccc2)n1 [compound 42]
Unit spec: %
Inhibitory activity (%) Barnyardgrass: 93
//
Compound: COc1cc(OC)nc(Oc2ccccc2C=NOCC=Cc2ccc(F)cc2)n1 [compound 29]
Unit spec: %
Inhibitory activity (%) Barnyardgrass: 98
//
Compound: COC(=O)c1ccccc1Oc1nc(OC)cc(OC)n1 [A, reference compound]
Unit spec: %
Inhibitory activity (%) Barnyardgrass: 73
//
Compound: CON=Cc1ccccc1Oc1nc(OC)cc(OC)n1 [Compound No. 1]
Unit spec: %
Inhibitory activity (%) Barnyardgrass: 58
//
Compound: C#CCON=Cc1ccccc1Oc1nc(OC)cc(OC)n1 [Compound No. 13]
Unit spec: %
Inhibitory activity (%) Barnyardgrass: 85
//
Compound: COc1cc(OC)nc(Oc2ccccc2C=NOCC=Cc2ccc(C(F)(F)F)cc2)n1 [compound 35]
Unit spec: %
Inhibitory activity (%) Barnyardgrass: 89
//
Compound: COc1cc(OC)nc(Oc2ccccc2C=NOCC=Cc2ccccc2C)n1 [Compound No. 39]
Unit spec: %
Inhibitory activity (%) Barnyardgrass: 92
//
Compound: C=CCON=Cc1ccccc1Oc1nc(OC)cc(OC)n1 [Compound No. 4]
Unit spec: %
Inhibitory activity (%) Barnyardgrass: 59
//
Compound: C=C(Cl)CON=Cc1ccccc1Oc1nc(OC)cc(OC)n1 [Compound No. 14]
Unit spec: %
Inhibitory activity (%) Barnyardgrass: 56
//
Compound: COc1cc(OC)nc(Oc2ccccc2C=NOCC=Cc2cccc(Cl)c2Cl)n1 [compound 41]
Unit spec: %
Inhibitory activity (%) Barnyardgrass: 89
//
Compound: COc1cc(OC)nc(Oc2ccccc2C=NOC(C)c2ccccc2)n1 (centres unmarked) [compound 21]
Unit spec: %
Inhibitory activity (%) Barnyardgrass: 26
//
Compound: COc1cc(OC)nc(Oc2ccccc2C=NOCC=Cc2c(F)cccc2F)n1 [compound 33]
Unit spec: %
Inhibitory activity (%) Barnyardgrass: 91
//
Compound: COc1cc(OC)nc(Oc2ccccc2C=NOCC=Cc2cccc(C)c2)n1 [Compound No. 34]
Unit spec: %
Inhibitory activity (%) Barnyardgrass: 91
//
Compound: COc1cc(OC)nc(Oc2ccccc2C=NOC2CCCCC2)n1 [Compound No. 3]
Unit spec: %
Inhibitory activity (%) Barnyardgrass: 22
//
Compound: COc1cc(OC)nc(Oc2ccccc2C=NOCC=Cc2ccccc2Cl)n1 [Compound No. 27]
Unit spec: %
Inhibitory activity (%) Barnyardgrass: 100
//
Compound: COc1cc(OC)nc(Oc2ccccc2C=NOCc2cccc3ccccc23)n1 [compound 22]
Unit spec: %
Inhibitory activity (%) Barnyardgrass: 35
//
Compound: COc1cc(OC)nc(Oc2ccccc2C=NOCC=Cc2ccc(Cl)cc2Cl)n1 [compound 30]
Unit spec: %
Inhibitory activity (%) Barnyardgrass: 97
//
Compound: COc1cc(OC)nc(Oc2ccccc2C=NOC(C)C)n1 [compound 6]
Unit spec: %
Inhibitory activity (%) Barnyardgrass: 17
//
Compound: C=CC(C)ON=Cc1ccccc1Oc1nc(OC)cc(OC)n1 (centres unmarked) [Compound No. 2]
Unit spec: %
Inhibitory activity (%) Barnyardgrass: 21
//
Compound: CC=CCON=Cc1ccccc1Oc1nc(OC)cc(OC)n1 [compound 8]
Unit spec: %
Inhibitory activity (%) Barnyardgrass: 41
//
Compound: COc1cc(OC)nc(Oc2ccccc2C=NOCC=Cc2ccc(Cl)cc2)n1 [Compound No. 28]
Unit spec: %
Inhibitory activity (%) Barnyardgrass: 91
//
Compound: COc1cc(OC)nc(Oc2ccccc2C=NOCC=Cc2ccccc2C(F)(F)F)n1 [compound 32]
Unit spec: %
Inhibitory activity (%) Barnyardgrass: 91
//
Compound: COc1cc(OC)nc(Oc2ccccc2C=NOCC=Cc2ccc(C)cc2)n1 [compound 36]
Unit spec: %
Inhibitory activity (%) Barnyardgrass: 92
//
Compound: COc1cc(OC)nc(Oc2ccccc2C=NOCc2cccc(C)c2)n1 [compound 20]
Unit spec: %
Inhibitory activity (%) Barnyardgrass: 58
//
Compound: COc1cc(OC)nc(Oc2ccccc2C=NOCc2ccc(C)cc2)n1 [compound 19]
Unit spec: %
Inhibitory activity (%) Barnyardgrass: 16
//
Compound: COc1cc(OC)nc(Oc2ccccc2C=NOCC=CCl)n1 [compound 11]
Unit spec: %
Inhibitory activity (%) Barnyardgrass: 43
//
Compound: COc1cc(OC)nc(Oc2ccccc2C=O)n1 [B, reference compound]
Unit spec: %
Inhibitory activity (%) Barnyardgrass: 98
//
Compound: COc1cc(OC)nc(Oc2ccccc2C=NOCC=Cc2ccc(Cl)c(Cl)c2)n1 [compound 31]
Unit spec: %
Inhibitory activity (%) Barnyardgrass: 90
//
Compound: COc1cc(OC)nc(Oc2ccccc2C=NOCc2ccccc2Cl)n1 [compound 16]
Unit spec: %
Inhibitory activity (%) Barnyardgrass: 15
//
Compound: COc1cc(OC)nc(Oc2ccccc2C=NOCc2ccccc2)n1 [Compound No. 15]
Unit spec: %
Inhibitory activity (%) Barnyardgrass: 23
//
Compound: COc1cc(OC)nc(Oc2ccccc2C=NOCC=Cc2ccccc2Br)n1 [compound 40]
Unit spec: %
Inhibitory activity (%) Barnyardgrass: 94
//
Compound: COc1cc(OC)nc(Oc2ccccc2C=NOCCc2ccccc2)n1 [compound 23]
Unit spec: %
Inhibitory activity (%) Barnyardgrass: 35
//
Compound: COc1cc(OC)nc(Oc2ccccc2C=NOCC=Cc2ccccc2)n1 [Compound No. 9]
Unit spec: %
Inhibitory activity (%) Barnyardgrass: 95
//
Compound: COc1cc(OC)nc(Oc2ccccc2C=NOCC=C(C)Cl)n1 [compound 12]
Unit spec: %
Inhibitory activity (%) Barnyardgrass: 39
//
Compound: COc1cc(OC)nc(Oc2ccccc2C=NO)n1 [Compound No. 24]
Unit spec: %
Inhibitory activity (%) Barnyardgrass: 36
